Cited source: ChEMBL document CHEMBL4304792

Test system: Staphylococcus aureus
Test: Potentiation of oxacillin induced antibacterial activity against Staphylococcus aureus NRS119 assessed as oxacillin MIC at 8 uM measured after 16 to 20 hrs in presence of 2% NaCl by microdilution broth method (reference value: 256 mg/L)
Format: functional
Sorting guide: entries reporting MIC beneath 4 µg/mL go in the 1 (yes) pile, the rest go in the 0 (no) pile.

SMI: N#C/C(=C\c1cc(Cc2ccc(Cl)c(Cl)c2)ccc1F)S(=O)(=O)c1ccccn1
LABEL: 0 (no)

input: Does the reported MIC of the following compound sit strictly below 4 µg/mL? `CS(=O)(=O)/C(C#N)=C/c1cc(Cc2ccc(Cl)c(Cl)c2)ccc1F`
output: 1 (yes)

input: Does the reported MIC of the following compound sit strictly below 4 µg/mL? `CS(=O)(=O)/C(C#N)=C/c1cc(Cc2ccc(Cl)c(Cl)c2)ccc1OC(F)(F)F`
output: 1 (yes)

input: Does the reported MIC of the following compound sit strictly below 4 µg/mL? `CS(=O)(=O)/C(C#N)=C/c1cc(-c2ccc(Cl)c(Cl)c2)ccc1F`
output: 0 (no)

* * *

System: Staphylococcus aureus
Experiment: Potentiation of oxacillin induced antibacterial activity against Staphylococcus aureus MW2 NRS123 assessed as oxacillin MIC at 16 uM measured after 16 to 20 hrs in presence of 2% NaCl by microdilution broth method (reference value: 16 mg/L)
Format: functional
MEASURED_METRIC: MIC (µg/mL)
One number for each entry, in µg/mL.

Please look at the items below and tell me MIC for each one, in order.
1. N#C/C(=C\c1cc(Cc2ccc(Cl)c(Cl)c2)ccc1F)S(=O)(=O)c1ccccn1
2. CS(=O)(=O)/C(C#N)=C/c1cc(Cc2ccc(Cl)c(Cl)c2)ccc1F

output:
[0.12, 0.5]

* * *

Test system: Staphylococcus aureus
Assay: Potentiation of oxacillin induced antibacterial activity against Staphylococcus aureus Mu50 NRS1 assessed as oxacillin MIC at 20 uM measured after 16 to 20 hrs in presence of 2% NaCl by microdilution broth method (reference value: 256 mg/L)
Type: functional
Would you mind telling me the reported MIC of each entry?
Answers are plain numbers, in mg/L.

SMI: CS(=O)(=O)/C(C#N)=C/c1cc(-c2ccc(Cl)c(Cl)c2)ccc1F
MIC / mg/L: 2

input: Which measured MIC value corresponds to `CS(=O)(=O)/C(C#N)=C/c1cc(Cc2ccc(Cl)c(Cl)c2)ccc1F` ?
output: 1

* * *

Test system: Staphylococcus aureus
Assay: Potentiation of oxacillin induced antibacterial activity against Staphylococcus aureus USA100-NRS382 assessed as oxacillin MIC at 16 uM measured after 16 to 20 hrs in presence of 2% NaCl by microdilution broth method (reference value: 64 mg/L)
Type: functional
Would you mind telling me the reported MIC of each entry?
Answers are plain numbers, in µg/mL.

SMI: CS(=O)(=O)/C(C#N)=C/c1c(F)ccc(Cc2ccc(Cl)c(Cl)c2)c1F
RECORDED_VALUE: 1

SMI: CS(=O)(=O)/C(C#N)=C/c1cc(Cc2ccc(Cl)c(Cl)c2)ccc1F
RECORDED_VALUE: 1

SMI: CS(=O)(=O)/C(C#N)=C/c1cc(-c2ccc(Cl)c(Cl)c2)ccc1F
RECORDED_VALUE: 2

SMI: N#C/C(=C\c1cc(Cc2ccc(Cl)c(Cl)c2)ccc1F)S(=O)(=O)c1ccccn1
RECORDED_VALUE: 0.25

In the following, a different compound is considered.
input: Which measured MIC value corresponds to `CS(=O)(=O)/C(C#N)=C/c1cc(Cc2ccc(Cl)c(Cl)c2)ccc1OC(F)(F)F` ?
output: 0.06
